System: COLO 205 colon
test description: NCI tumour cell line growth inhibition, 48 h
outcome measure: TGI

Exercise: Quick one: TGI for CC(=O)[CH-]C(=O)c1ccccc1.CC(=O)[CH-]C(=O)c1ccccc1.CC(C)CCC[C@H](C)C1CCC2[C@@H]3CC=C4C[C@@H]([O-])CC[C@]4(C)C3CC[C@@]21C.CC(C)CCC[C@H](C)C1CCC2[C@@H]3CC=C4C[C@@H]([O-])CC[C@]4(C)C3CC[C@@]21C.Cl.[Ti+4] (some centres not stated) ?
Solution: > 25 µM

Exercise: Item under review: COc1ccc(-c2nn(-c3ccc(NC(=O)c4cc(Cl)cc(Cl)c4)cc3)cc2-c2ccncc2)cc1Cl . Reported TGI?
Solution: > 100 µM

Exercise: Please report the recorded TGI for CC[C@]1(O)CC2CN(CCc3c([nH]c4ccccc34)[C@@](C(=O)OC)(c3cc4c(cc3OC)N(C=O)[C@H]3[C@@](O)(C(=O)OC)[C@H](OC(C)=O)[C@]5(CC)C=CCN6CC[C@]43[C@@H]65)C2)C1 (some centres not stated) .
Solution: < 0.005 µM

Exercise: What value of TGI has been recorded for this entry: CC(=O)Nc1ccc(/C=C2\N=C(c3ccccc3)OC2=O)cc1
Solution: > 100 µM

Exercise: For the molecule Cc1ccc(NC(=O)CSc2nnc(Cc3ccccc3)o2)cc1 , what TGI is on record?
Solution: > 100 µM

Exercise: Tell me the measured TGI of Cc1ccc(Cl)cc1NC(=O)c1cc2ccccc2cc1O , please.
Solution: 3.48 µM

Okay, now this molecule:
Exercise: Record request: TGI value, item CCN(CC)CCCNc1ccc([N+](=O)[O-])c2nc3ccc(OC)cc3c(N)c12
Solution: 2.67 µM
